Procedure Details: Cell-based activity under Prompt Conditions: Cell-based activity under Prompt Conditions. Rat or human NHE3-mediated Na+-dependent H+ antiport was measured using a modification of the pH sensitive dye method originally reported by Paradiso (PNAS USA. 81:7436-7440, 1984). Opossum kidney (OK) cells were obtained from the ATCC and propagated per their instructions. The rat NHE3 gene (GenBank M85300) or the human NHE3 gene (GenBank NM_004174.1) was introduced into OK cells via electroporation, and cells were seeded into 96 well plates and grown overnight. Medium was aspirated from the wells, cells were washed twice with NaCl-HEPES buffer (100 mM NaCl, 50 mM HEPES, 10 mM glucose, 5 mM KCl, 2 mM CaCl2, 1 mM MgCl2, pH 7.4), then incubated for 30 min at room temperature with NH4Cl-HEPES buffer (20 mM NH4Cl, 80 mM NaCl, 50 mM HEPES, 5 mM KCl, 2 mM CaCl2, 1 mM MgCl2, pH 7.4) containing 5 μM bis(acetoxymethyl) 3,3′-(3′,6′-bis(acetoxymethoxy)-5-((acetoxymethoxy)carbonyl)-3-oxo-3H-spiro[isobenzofuran-1,9′-xanthene]-2′,7′-diyl)dipropanoate (BCECF-AM).Cells were washed twice with Ammonium free, Na+-free HEPES (100 mM choline, 50 mM HEPES, 10 mM glucose, 5 mM KCl, 2 mM CaCl2, 1 mM MgCl2, pH 7.4) and incubated in the same buffer for 10 minutes at room temperature to lower intracellular pH. […] Initial rates were plotted as the average 2 or more replicates, and pIC50 values were estimated using GraphPad Prism.
Property Name: IC50 (nM)
Numbers only, in nM.

| Input Smiles | Readout Units | Measured Result |
| --- | --- | --- |
| CN1Cc2c(Cl)cc(Cl)cc2[C@H](c2cccc(S(=O)(=O)NCCOCCOCCNC(=O)CCC(CCC(=O)NCCOCCOCCNS(=O)(=O)c3cccc([C@@H]4CN(C)Cc5c(Cl)cc(Cl)cc54)c3)(CCC(=O)NCCOCCOCCNS(=O)(=O)c3cccc([C@@H]4CN(C)Cc5c(Cl)cc(Cl)cc54)c3)NC(=O)NC[C@H](O)[C@@H](O)[C@H](O)[C@H](O)CO)c2)C1 | nM | 56.2 |

We now examine a further compound.
Query :: Give the reported IC50 for this compound. "CN(C)[C@H]1Cc2c(Cl)cc(Cl)cc2[C@@H]1Oc1ccc(S(=O)(=O)NCCOCCOCCNC(=O)C(C)(C)C(=O)NCCOCCOCCNS(=O)(=O)c2ccc(O[C@H]3c4cc(Cl)cc(Cl)c4C[C@@H]3N(C)C)cc2)cc1"
Result :: 5.01

----------
Procedure Details: Cell-based activity under Prompt Conditions: Cell-based activity under Prompt Conditions. Rat or human NHE3-mediated Na+-dependent H+ antiport was measured using a modification of the pH sensitive dye method originally reported by Paradiso (PNAS USA. 81:7436-7440, 1984). Opossum kidney (OK) cells were obtained from the ATCC and propagated per their instructions. The rat NHE3 gene (GenBank M85300) or the human NHE3 gene (GenBank NM_004174.1) was introduced into OK cells via electroporation, and cells were seeded into 96 well plates and grown overnight. Medium was aspirated from the wells, cells were washed twice with NaCl-HEPES buffer (100 mM NaCl, 50 mM HEPES, 10 mM glucose, 5 mM KCl, 2 mM CaCl2, 1 mM MgCl2, pH 7.4), then incubated for 30 min at room temperature with NH4Cl-HEPES buffer (20 mM NH4Cl, 80 mM NaCl, 50 mM HEPES, 5 mM KCl, 2 mM CaCl2, 1 mM MgCl2, pH 7.4) containing 5 μM bis(acetoxymethyl) 3,3′-(3′,6′-bis(acetoxymethoxy)-5-((acetoxymethoxy)carbonyl)-3-oxo-3H-spiro[isobenzofuran-1,9′-xanthene]-2′,7′-diyl)dipropanoate (BCECF-AM).Cells were washed twice with Ammonium free, Na+-free HEPES (100 mM choline, 50 mM HEPES, 10 mM glucose, 5 mM KCl, 2 mM CaCl2, 1 mM MgCl2, pH 7.4) and incubated in the same buffer for 10 minutes at room temperature to lower intracellular pH. […] Initial rates were plotted as the average 2 or more replicates, and pIC50 values were estimated using GraphPad Prism.
pIC50: −log10 of the molar value.
Mark False for pIC50 values under 7, and True for everything at or above.

| Input Smiles | Group Label |
| --- | --- |
| CN1Cc2c(Cl)cc(Cl)cc2[C@H](c2cccc(S(=O)(=O)NCCOCCOCCNC(=O)CCC(CCC(=O)NCCOCCOCCNS(=O)(=O)c3cccc([C@@H]4CN(C)Cc5c(Cl)cc(Cl)cc54)c3)(CCC(=O)NCCOCCOCCNS(=O)(=O)c3cccc([C@@H]4CN(C)Cc5c(Cl)cc(Cl)cc54)c3)NC(=O)CCC(=O)O)c2)C1 | True |
| CC(=O)C(CCC(=O)NCCOCCOCCNS(=O)(=O)c1cccc([C@@H]2CN(C)Cc3c(Cl)cc(Cl)cc32)c1)(CCC(=O)NCCOCCOCCNS(=O)(=O)c1cccc([C@@H]2CN(C)Cc3c(Cl)cc(Cl)cc32)c1)CCC(=O)NCCOCCOCCNS(=O)(=O)c1cccc([C@@H]2CN(C)Cc3c(Cl)cc(Cl)cc32)c1 | False |

Query :: Check if pIC50 >= 7 (inclusive). Item: "CNC(=O)NC(CCC(=O)NCCOCCOCCNS(=O)(=O)c1cccc([C@@H]2CN(C)Cc3c(Cl)cc(Cl)cc32)c1)(CCC(=O)NCCOCCOCCNS(=O)(=O)c1cccc([C@@H]2CN(C)Cc3c(Cl)cc(Cl)cc32)c1)CCC(=O)NCCOCCOCCNS(=O)(=O)c1cccc([C@@H]2CN(C)Cc3c(Cl)cc(Cl)cc32)c1"
Result :: False

Query :: Check if pIC50 >= 7 (inclusive). Item: "CN1Cc2c(Cl)cc(Cl)cc2[C@H](c2cccc(S(=O)(=O)NCCOCCOCCNC(=O)CCC(CCC(=O)NCCOCCOCCNS(=O)(=O)c3cccc([C@@H]4CN(C)Cc5c(Cl)cc(Cl)cc54)c3)(CCC(=O)NCCOCCOCCNS(=O)(=O)c3cccc([C@H]4c5cc(Cl)cc(Cl)c5CCN4C)c3)NC(=O)N[C@@H](CC(=O)O)C(=O)O)c2)C1"
Result :: True
